Test system: SKOV-3 cells
test.description: SRB cell proliferation assay, SKOV-3
Format: cell-based
assay.setup: Homo sapiens, SK-OV-3; SKOV-3, ovarian cancer; 72 h, SRB assay (Table 1); read-out: IC50
pIC50: −log10 of the molar value.

input.smiles | pIC50
C[C@](C#N)(COc1cc(C#N)ccc1C(F)(F)F)NC(=O)c1ccc(S(=O)(=O)C(F)(F)F)cc1 | 4.59
C[C@](C#N)(COc1cc(C#N)ccc1C(F)(F)F)NC(=O)c1ccc(SC(F)(F)F)cc1 | 4.53

====

Tested on: HUVEC (human umbilical vein endothelial cells)
test.description: SRB cell proliferation assay, HUVEC
Format: cell-based
assay.setup: Homo sapiens; HUVEC; 72 h, SRB assay (Table 1); read-out: IC50
pIC50: −log10 of the molar value.
endpoint: pIC50

compound | value.observed
C[C@](C#N)(COc1cc(C#N)ccc1C(F)(F)F)NC(=O)c1ccc(SC(F)(F)F)cc1 [MPL] | 4.06
C[C@](C#N)(COc1cc(C#N)ccc1C(F)(F)F)NC(=O)c1ccc(S(=O)(=O)C(F)(F)F)cc1 [MPL-SO2, monepantel sulphone] | 4.32

====

Tested on: YOU cells (mesothelioma)
test.description: SRB cell proliferation assay, YOU
Format: cell-based
assay.setup: YOU, mesothelioma; 72 h, SRB assay (Table 1); read-out: IC50
pIC50: −log10 of the molar value.

input.smiles | study.target | pIC50
C[C@](C#N)(COc1cc(C#N)ccc1C(F)(F)F)NC(=O)c1ccc(SC(F)(F)F)cc1 | YOU cells (mesothelioma) | 4.64

====

Tested on: DU-145 prostate cancer cells
test.description: SRB cell proliferation assay, DU-145
Format: cell-based
assay.setup: Homo sapiens; DU-145, prostate cancer; 72 h, SRB assay (Table 1); read-out: IC50

molecule | IC50 (µM)
C[C@](C#N)(COc1cc(C#N)ccc1C(F)(F)F)NC(=O)c1ccc(SC(F)(F)F)cc1 [MPL] | 23.5

====

Tested on: CHO (Chinese hamster ovarian cells)
test.description: SRB cell proliferation assay, CHO
Format: cell-based
assay.setup: Cricetulus griseus; CHO (Table 2); read-out: IC50 in suppressing proliferation

molecule | study.target | IC50
C[C@](C#N)(COc1cc(C#N)ccc1C(F)(F)F)NC(=O)c1ccc(S(=O)(=O)C(F)(F)F)cc1 [MPL-SO2, monepantel sulphone] | CHO (Chinese hamster ovarian cells) | 73.7 µM

====

Catalogue of IC50 readings, one per entry.
System: CHO (Chinese hamster ovarian cells)
test.description: SRB cell proliferation assay, CHO
Format: cell-based
assay.setup: Cricetulus griseus; CHO = Chinese hamster ovarian cells (Table 3); read-out: IC50 μM CHO

molecule | IC50, µM
CC(C#N)(COc1cc(F)ccc1Cl)NC(=O)c1ccc(OC(F)(F)F)cc1 (centres unmarked) | 57.3
CC(C#N)(COc1cc(F)c(F)cc1C(F)(F)F)NC(=O)c1ccc(OC(F)(F)F)cc1 (centres unmarked) | 32.2
C[C@](C#N)(COc1cc(C#N)ccc1C(F)(F)F)NC(=O)c1ccc(SC(F)(F)F)cc1 | 34.6
CC(C#N)(COc1cc(F)c(F)cc1Br)NC(=O)c1ccc(OC(F)(F)F)cc1 (centres unmarked) | 31.8
C[C@@](C#N)(COc1cc(C#N)ccc1C(F)(F)F)NC(=O)c1ccc(SC(F)(F)F)cc1 | 23.4

====

Test system: A2780 cells
test.description: SRB cell proliferation assay, A2780
Assay type: cell-based, human
assay.setup: Homo sapiens; A2780, ovarian cancer (Table 2); read-out: IC50 in suppressing proliferation
pIC50: −log10 of the molar value.

input.smiles | pIC50
C[C@](C#N)(COc1cc(C#N)ccc1C(F)(F)F)NC(=O)c1ccc(S(=O)(=O)C(F)(F)F)cc1 | 5.38

====

Tested on: HT-29 cells (colorectal cancer)
test.description: SRB cell proliferation assay, HT-29
Assay type: cell-based
assay.setup: Homo sapiens; HT-29, colorectal cancer (Table 2); read-out: IC50 in suppressing proliferation
endpoint: IC50

input.smiles | study.target | value.observed
C[C@](C#N)(COc1cc(C#N)ccc1C(F)(F)F)NC(=O)c1ccc(S(=O)(=O)C(F)(F)F)cc1 | HT-29 cells (colorectal cancer) | 2750 nM
